Experimental Parameters: human, Liver
Please note: Hepatotoxicity (severe hepatitis) exactly at 5 is Not met. Only values below 5 get Met.

Input Smiles	Category Label
CC1=C(/C=C/C(C)=C/C=C/C(C)=C/CO)C(C)(C)CCC1	Met
[H]/N=C(/N)N[C@H]1[C@H](O)[C@@H](O)[C@H](O[C@@H]2O[C@@H](C)[C@](O)(C=O)[C@H]2O[C@@H]2O[C@@H](CO)[C@H](O)[C@@H](O)[C@@H]2NC)[C@@H](N/C(N)=N\[H])[C@@H]1O	Met
Oc1ncc(N(CCCl)CCCl)c(O)n1	Met
O=C(O)COc1ccc(C(=O)c2cccs2)c(Cl)c1Cl	Not met
Nc1ccc(S(=O)(=O)c2ccc(N)cc2)cc1	Not met

---

Experimental Parameters: human, serum

Molecule	Hepatotoxicity (moderate)
O=C(Nc1cccc2c(=O)cc(-c3nnn[nH]3)oc12)c1ccc(OCCCCc2ccccc2)cc1	1
CC(S)C(=O)NCC(=O)O (stereo unspecified) [TIOPRONIN]	1
CC(C)C[C@H]1C(=O)N2CCC[C@H]2[C@]2(O)O[C@](NC(=O)[C@@H]3C=C4c5cccc6[nH]c(Br)c(c56)C[C@H]4N(C)C3)(C(C)C)C(=O)N12 [BROMOCRIPTINE]	6
C/N=C(/Cc1ccc2ccccc2c1)NC [NAPACTADINE]	1
COc1cc2oc(=O)c(C)c(C)c2cc1OCCCN1CCN(c2ccccc2OC)CC1 [ENSACULIN]	1
NNCCc1ccccc1 [PHENELZINE]	1

---

Experimental Parameters: human, serum
Observation Type: Hepatotoxicity (moderate)

In [3]: df
Out[3]:
                                   molecule  quantitative_result
0  FC(F)OC(F)(F)C(F)Cl (stereo unspecified)                   15
1                CCCCCNCC(N)=O [MILACEMIDE]                    3
2  CC1CN(c2cc3c(cc2F)c(=O)c(C(=O)O)cn3-c2ccc(F)cc2F)CCN1 (stereo unspecified) [TEMAFLOXACIN]                   33
3  CC(CN(C)C)CN1c2ccccc2CCc2ccccc21 (stereo unspecified) [TRIMIPRAMINE]                    2
4  COc1ccc2[nH]c([S+]([O-])Cc3ncc(C)c(OC)c3C)nc2c1 (stereo unspecified) [OMEPRAZOLE]                   24
5  Cc1nc2ccc(CN(C)c3ccc(C(=O)N[C@@H](CCC(=O)O)C(=O)O)s3)cc2c(=O)[nH]1 [RALTITREXED]                   20

---

Parameter Hepatotoxicity (acute): see the listing below.
Experimental Parameters: human, serum

Molecule	Hepatotoxicity (acute)
Nc1nc2ccc(OC(F)(F)F)cc2s1 [RILUZOLE]	5
CN(C)[C@@H]1C(O)=C(C(N)=O)C(=O)[C@@]2(O)C(O)=C3C(=O)c4c(O)ccc(Cl)c4[C@@H](O)[C@H]3C[C@@H]12 [DEMECLOCYCLINE]	1
CN1CCN(CC(=O)N2c3ccccc3C(=O)Nc3cccnc32)CC1 [PIRENZEPINE]	0
CO/N=C(\C(=O)N[C@@H]1C(=O)N2C(C(=O)[O-])=C(C[n+]3cccc4c3CCC4)CS[C@H]12)c1csc(N)n1 [CEFPIROME]	0
Oc1ccc2[nH]cc(CCCCN3CC=C(c4ccccc4)CC3)c2c1 [ROXINDOLE]	0
CCCCNC(=O)NS(=O)(=O)c1ccc(N)cc1 [CARBUTAMIDE]	5
CC1=C(/C=C/C(C)=C/C=C/C(C)=C/CO)C(C)(C)CCC1.O=C(O)Cc1cc(I)c(Oc2ccc(O)c(I)c2)c(I)c1	7
CC1(C)[C@@H](OC(=O)CCC(=O)O)CC[C@]2(C)[C@H]3C(=O)C=C4[C@@H]5C[C@@](C)(C(=O)O)CC[C@]5(C)CC[C@@]4(C)[C@]3(C)CC[C@@H]12 [CARBENOXOLONE]	0
O=C(CCCN1CCN(c2ccc(F)cc2)CC1)NC1c2ccccc2CSc2ccccc21 (configuration not stated) [MONATEPIL]	0
NC(=O)OCC(COC(N)=O)c1ccccc1 [FELBAMATE]	4
Clc1cccc(C(c2ccc3[nH]cnc3c2)n2ccnc2)c1 (configuration not stated) [LIAROZOLE]	0
O=C1c2c(O)ccc(O)c2C(=O)c2c(NCCNCCO)ccc(NCCNCCO)c21 [MITOXANTRONE]	4

---

Experimental Parameters: human, serum
Observation Type: Hepatotoxicity (acute)

                                   compound  quantitative_result
0         CC(NN)c1ccccc1 (stereo not drawn)                    0
1     O=[N+]([O-])c1ccc(O)c([N+](=O)[O-])c1                    3
2  Clc1ccc(COC(Cn2ccnc2)c2ccc(Cl)cc2Cl)c(Cl)c1 (stereo not drawn)                    0

---

Experiment: Proposed mechanism(s) of liver damage. [column 'MEC' in source]
Experimental Parameters: human
Observation Type: Hepatotoxicity (mechanism)

Molecule	Result
Nc1nc(O)c2ncn(COC(CO)CO)c2n1 [GANCICLOVIR]	Dose-dependant
CO[C@H](C(=O)[C@@H](O)[C@@H](C)O)[C@@H]1Cc2cc3cc(O[C@H]4C[C@@H](O[C@H]5C[C@@H](O)[C@H](O)[C@@H](C)O5)[C@H](O)[C@@H](C)O4)c(C)c(O)c3c(O)c2C(=O)[C@H]1O[C@H]1C[C@@H](O[C@H]2C[C@@H](O[C@H]3C[C@](C)(O)[C@H](O)[C@@H](C)O3)[C@@H](O)[C@@H](C)O2)[C@H](O)[C@@H](C)O1 [PLICAMYCIN]	Dose-dependant
CCCC(=O)Nc1ccc(OCC(O)CNC(C)C)c(C(C)=O)c1 (stereo not given) [ACEBUTOLOL]	Allergic
CCN(CC)CCNC(=O)c1ccc(N)cc1 [PROCAINAMIDE]	Allergic
Nc1nnc(-c2cccc(Cl)c2Cl)c(N)n1 [LAMOTRIGINE]	Allergic
CO/N=C(\C(=O)N[C@@H]1C(=O)N2C(C(=O)O)=C(COC(N)=O)CS[C@H]12)c1ccco1 [CEFUROXIME]	Allergic
CCn1cc(C(=O)O)c(=O)c2ccc(C)nc21 [NALIDIXIC ACID]	Allergic
Fc1ccc([C@@H]2CCNC[C@H]2COc2ccc3c(c2)OCO3)cc1 [PAROXETINE]	Allergic

---

Experiment: Highest frequency of acute liver toxicity observed during clinical trials, expressed as a percentage. [column '% AIGUE' in source]
Experimental Parameters: human
*1 amine or outer side, *2 acyl side, *3 side chain or, on linkers, in order; H or OH if unused. Where a SMILES comes first, the peptide text is derived from it. Bridges are numbered along the chain shown (N, C = ends). Roman numbers before positions name the chains, in order. [ ]: non-standard residue; d: D form. Actinocin(9to1) = Cc1c2oc3c(C)ccc(C(=O)[*:1])c3nc-2c(C(=O)[*:2])c(N)c1=O; NMeV = CN[C@H](C(=O)O)C(C)C; Sar = CNCC(=O)O
Quick reference for Hepatotoxicity (acute) among some compounds

Compound	Hepatotoxicity (acute)
O=c1n(CCCN2CCN(c3cccc(Cl)c3)CC2)nc2ccccn12	0%
Cc1c2oc3c(C)ccc(C(=O)N[C@@H]4C(=O)N[C@H](C(C)C)C(=O)N5CCC[C@H]5C(=O)N(C)CC(=O)N(C)[C@@H](C(C)C)C(=O)O[C@@H]4C)c3nc-2c(C(=O)N[C@@H]2C(=O)N[C@H](C(C)C)C(=O)N3CCC[C@H]3C(=O)N(C)CC(=O)N(C)[C@@H](C(C)C)C(=O)O[C@@H]2C)c(N)c1=O [DACTINOMYCIN] (I: T[dV]P[Sar][NMeV] / II: T[dV]P[Sar][NMeV]; ester I:1-I:C, II:1-II:C; linker I:N-II:N via Actinocin(9to1))	8.8%
CC(=O)[C@@]1(O)CC[C@H]2[C@@H]3CCC4=CC(=O)CC[C@]4(C)[C@H]3CC[C@@]21C [HYDROXYPROGESTERONE]	0%
OCCN1CCN(CCCN2c3ccccc3Sc3ccc(Cl)cc32)CC1	0.3%
CCC(Cc1c(I)cc(I)c(N)c1I)C(=O)O (stereo not given)	0%
[H]/N=C(\N/C(=N/[H])NCCCCCCNC(=N)NC(=N)Nc1ccc(Cl)cc1)Nc1ccc(Cl)cc1	0%
CC(CN(C)C)CN1c2ccccc2CCc2ccccc21 (stereo not given)	0%
Nc1nc(O)c2ncn(COC(CO)CO)c2n1	0%
CC(c1cc2ccccc2s1)N(O)C(N)=O (stereo not given)	0%
O=C1c2cccc(O)c2C(=O)c2c(O)cccc21	0%

---

Let's look at some compounds and their measured Hepatotoxicity (severe hepatitis).
Experimental Parameters: human
Observation Type: Hepatotoxicity (severe hepatitis)

In [3]: df
Out[3]:
                                    compound  quantitative_result
 0  CC(=O)c1ccc2c(c1)N(CC(C)N(C)C)c1ccccc1S2 (stereo unspecified)                    0
 1         CN(C)C/C=C(/c1ccc(Br)cc1)c1cccnc1                    0
 2  CCC(Cc1cnc2nc(N)nc(N)c2n1)c1ccc(C(=O)N[C@@H](CCC(=O)O)C(=O)O)cc1 (stereo partly specified) [EDATREXATE]                    0
 3  Fc1ccc(C(c2ccc(F)cc2)N2CCN(C/C=C/c3ccccc3)CC2)cc1                    0
 4  CO/N=C(\C(=O)N[C@@H]1C(=O)N2C(C(=O)O)=C(C)CS[C@H]12)c1csc(N)n1                    0
 5  CCCC(C)(COC(N)=O)COC(=O)NC(C)C (stereo unspecified)                    0
 6  CC(=O)[C@@]1(O)CC[C@H]2[C@@H]3C=C(C)C4=CC(=O)CC[C@@H]4[C@H]3CC[C@@]21C                    2
 7  C[C@@H](O)[C@H]1C(=O)N2C(C(=O)O)=C(S[C@@H]3CN[C@H](C(=O)Nc4cccc(C(=O)O)c4)C3)[C@H](C)[C@H]12                    0
 8  O=C(Nc1ccc(Cl)cc1)NS(=O)(=O)c1ccc2c(c1)CCC2                    0
 9                  O=NN(CCCl)C(=O)NC1CCCCC1                    1
10  C[C@]12Cc3c[nH]nc3C[C@@H]1CC[C@@H]1[C@@H]2CC[C@@]2(C)[C@H]1CC[C@]2(C)O                    1
